From: patent US20230233569A1

Recorded measurements of IC50, one per entry
- Target System: NRAS WT (Homo sapiens, UniProt P01111+P62937)
- Sequence (P01111 whole entry): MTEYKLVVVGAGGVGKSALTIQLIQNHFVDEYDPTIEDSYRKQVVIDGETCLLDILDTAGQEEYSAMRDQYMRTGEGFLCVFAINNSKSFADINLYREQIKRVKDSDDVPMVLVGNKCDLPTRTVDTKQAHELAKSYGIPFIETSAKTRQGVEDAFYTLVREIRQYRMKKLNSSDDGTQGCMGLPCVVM
- Sequence (P62937 whole entry): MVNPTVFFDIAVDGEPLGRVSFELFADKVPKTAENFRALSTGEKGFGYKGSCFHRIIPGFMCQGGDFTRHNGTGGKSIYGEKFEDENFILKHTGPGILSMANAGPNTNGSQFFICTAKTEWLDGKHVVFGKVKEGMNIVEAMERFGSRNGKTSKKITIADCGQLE
- Experiment Description: Disruption of BRAF RBD interaction with Ras (FRET / MOA assay, with Cyclophilin A)
- Type: biochemical
- Condition Description: NRAS WT; read-out: NRAS WT FRET data IC50

Recorded IC50, per entry:
| Compound | Result |
| --- | --- |
| CCn1c(-c2cccnc2[C@H](C)OC)c2c3cc(ccc31)-c1csc(n1)C[C@H](NC(=O)[C@H](C(C)C)N(C)C(=O)N1CC[C@]13CCCNC3)C(=O)N1CCC[C@H](N1)C(=O)OCC(C)(C)C2 | 10 to 100 nM |
| CCn1c(-c2cccnc2[C@H](C)OC)c2c3cc(ccc31)-c1csc(n1)C[C@H](NC(=O)[C@H](C(C)C)N(C)C(=O)N1C[C@@H]3CN(C)CC[C@@H]31)C(=O)N1CCC[C@H](N1)C(=O)OCC(C)(C)C2 | 100 to 1000 nM |
| CCn1c(-c2cccnc2[C@H](C)OC)c2c3cc(ccc31)-c1csc(n1)C[C@H](NC(=O)[C@H](C(C)C)N(C)C(=O)N1CCC3(CCN(C)CC3)C1)C(=O)N1CCC[C@H](N1)C(=O)OCC(C)(C)C2 (atropisomer, axis not shown) | 10 to 100 nM |
| CCn1c(-c2cccnc2[C@H](C)OC)c2c3cc(ccc31)-c1csc(n1)C[C@H](NC(=O)[C@H](C(C)C)N(C)C(=O)N1CC[C@@H]1C(=O)NC)C(=O)N1CCC[C@H](N1)C(=O)OCC(C)(C)C2 | 1000 to 10000 nM |
| CCn1c(-c2cccnc2[C@H](C)OC)c2c3cc(ccc31)-c1csc(n1)C[C@H](NC(=O)[C@H](C(C)C)N(C)C(=O)N1CC[C@H]3CN(C)C[C@H]31)C(=O)N1CCC[C@H](N1)C(=O)OCC(C)(C)C2 (atropisomer, axis not shown) | 10 to 100 nM |

Ask: Output measured IC50 for this item: CCn1c(-c2cccnc2[C@H](C)OC)c2c3cc(ccc31)-c1csc(n1)C[C@H](NC(=O)[C@H](C(C)C)N(C)C(=O)N1CCN3CCOC[C@@H]3C1)C(=O)N1CCC[C@H](N1)C(=O)OCC(C)(C)C2
Result: 100 to 1000 nM

Ask: Output measured IC50 for this item: CCn1c(-c2cc(C3CCN(C)CC3)cnc2[C@H](C)OC)c2c3cc(ccc31)-c1cc(O)cc(c1)C[C@H](NC(=O)[C@H](C(C)C)N(C)C(=O)[C@@H]1OCC[C@@H]1c1ccccc1)C(=O)N1CCC[C@H](N1)C(=O)OCC(C)(C)C2 (atropisomer, axis not shown)
Result: < 10 nM

Ask: Output measured IC50 for this item: CCn1c(-c2cccnc2[C@H](C)OC)c2c3cc(ccc31)-c1csc(n1)C[C@H](NC(=O)[C@@H]1CCCO1)C(=O)N1CCC[C@H](N1)C(=O)OCC(C)(C)C2
Result: 100 to 1000 nM

Ask: Output measured IC50 for this item: CCn1c(-c2cccnc2[C@H](C)OC)c2c3cc(ccc31)-c1csc(n1)C[C@H](NC(=O)[C@H](C(C)C)N(C)C(=O)N1CC(n3nc(C)cc3C)C1)C(=O)N1CCC[C@H](N1)C(=O)OCC(C)(C)C2
Result: 100 to 1000 nM

Ask: Output measured IC50 for this item: CCn1c(-c2cccnc2[C@H](C)OC)c2c3cc(ccc31)-c1csc(n1)C[C@H](NC(=O)[C@H](C(C)C)N(C)C(=O)[C@H]1CCN(C(=O)CNC)C1)C(=O)N1CCC[C@H](N1)C(=O)OCC(C)(C)C2
Result: 100 to 1000 nM

Ask: Output measured IC50 for this item: CCn1c(-c2cccnc2[C@H](C)OC)c2c3cc(ccc31)-c1csc(n1)C[C@H](NC(=O)[C@H](C(C)C)N(C)C(=O)N1C[C@H](OC)[C@@H](N)C1)C(=O)N1CCC[C@H](N1)C(=O)OCC(C)(C)C2 (atropisomer, axis not shown)
Result: 100 to 1000 nM

Ask: Output measured IC50 for this item: CCn1c(-c2cccnc2[C@H](C)OC)c2c3cc(ccc31)-c1csc(n1)C[C@H](NC(=O)[C@H](C(C)C)N(C)C(=O)N1CCN(C)CC1)C(=O)N1CCC[C@H](N1)C(=O)OCC(C)(C)C2
Result: 100 to 1000 nM

Ask: Output measured IC50 for this item: CCn1c(-c2cccnc2[C@H](C)OC)c2c3cc(ccc31)-c1csc(n1)C[C@H](NC(=O)[C@H](C(C)C)N(C)C(=O)N1CCCC1)C(=O)N1CCC[C@H](N1)C(=O)OCC(C)(C)C2 (atropisomer, axis not shown)
Result: 10 to 100 nM

Ask: Output measured IC50 for this item: CCn1c(-c2cccnc2[C@H](C)OC)c2c3cc(ccc31)-c1csc(n1)C[C@H](NC(=O)[C@H](C(C)C)N(C)C(=O)N1CC3(CCN(C)CC3)C1)C(=O)N1CCC[C@H](N1)C(=O)OCC(C)(C)C2
Result: 100 to 1000 nM

Ask: Output measured IC50 for this item: CCn1c(-c2cccnc2[C@H](C)OC)c2c3cc(ccc31)-c1csc(n1)C[C@H](NC(=O)[C@H](C(C)C)N(C)C(=O)N1[C@@H](C)CN(C)C[C@@H]1C)C(=O)N1CCC[C@H](N1)C(=O)OCC(C)(C)C2
Result: 1000 to 10000 nM

Ask: Output measured IC50 for this item: CCn1c(-c2cc(N3CCN(C)CC3)cnc2[C@H](C)OC)c2c3cc(ccc31)-c1csc(n1)C[C@H](NC(=O)[C@H](C1CCCC1)N(C)C(=O)N1CCC1)C(=O)N1CCC[C@H](N1)C(=O)OCC(C)(C)C2 (atropisomer, axis not shown)
Result: 10 to 100 nM

---

- Target System: NRAS Q61K (Homo sapiens, UniProt P01111+P62937, Q61K)
- Sequence (P01111 whole entry Q61K): as the sequence (P01111 whole entry) above, with Q61K counted along it
- Sequence (P62937 whole entry): as the sequence (P62937 whole entry) above
- Experiment Description: Ras-Raf disruption / FRET / MOA assay (BRAF RBD)
- Assay type: biochemical
pIC50: −log10 of the molar value.
Recorded measurements of pIC50, one per entry

| Molecule | pIC50 |
| --- | --- |
| CCn1c(-c2cccnc2[C@H](C)OC)c2c3cc(ccc31)-c1cc(O)cc(c1)C[C@H](NC(=O)[C@H](C(C)C)N(C)C(=O)CN(C)C(=O)[C@H]1N[C@@H]1C1COC1)C(=O)N1CCC[C@H](N1)C(=O)OCC(C)(C)C2 | 6.00 to 7.00 |
| CCn1c(-c2cccnc2[C@H](C)OC)c2c3cc(ccc31)-c1cc(O)cc(c1)C[C@H](NC(=O)[C@H](C(C)C)N(C)C(=O)CN(C)C(=O)[C@@H]1N[C@H]1C1COC1)C(=O)N1CCC[C@H](N1)C(=O)OCC(C)(C)C2 | 6.00 to 7.00 |
| CCn1c(-c2cccnc2[C@H](C)OC)c2c3cc(ccc31)-c1cc(O)cc(c1)C[C@H](NC(=O)[C@H](C(C)C)N(C)C(=O)CN(C)C(=O)[C@@H]1CN1CCCOC(C)=O)C(=O)N1CCC[C@H](N1)C(=O)OCC(C)(C)C2 (stereo partly shown) | 6.00 to 7.00 |

Ask: Output measured pIC50 for this item: CCn1c(-c2cccnc2[C@H](C)OC)c2c3cc(ccc31)-c1cc(O)cc(c1)C[C@H](NC(=O)[C@H](C1CCCC1)N(C)C(=O)CN(C)C(=O)[C@@H]1N[C@@H]1C1CC1)C(=O)N1CCC[C@H](N1)C(=O)OCC(C)(C)C2
Result: 7.00 to 8.00

Ask: Output measured pIC50 for this item: CCn1c(-c2cccnc2[C@H](C)OC)c2c3cc(ccc31)-c1cc(O)cc(c1)C[C@H](NC(=O)[C@H](C(C)C)N(C)C(=O)CN(C)C(=O)[C@H]1N[C@H]1C(C)C)C(=O)N1CCC[C@H](N1)C(=O)OCC(C)(C)C2
Result: 6.00 to 7.00

Ask: Output measured pIC50 for this item: CCn1c(-c2cccnc2[C@H](C)OC)c2c3cc(ccc31)-c1cc(O)cc(c1)C[C@H](NC(=O)[C@H](C(C)C)N(C)C(=O)CN(C)C(=O)[C@@H]1CN1CC1COC1)C(=O)N1CCC[C@H](N1)C(=O)OCC(C)(C)C2 (stereo partly shown)
Result: 6.00 to 7.00

Ask: Output measured pIC50 for this item: CC[C@@H]1N[C@@H]1C(=O)N(C)CC(=O)N(C)[C@H](C(=O)N[C@H]1Cc2cc(O)cc(c2)-c2ccc3c(c2)c(c(-c2cccnc2[C@H](C)OC)n3CC)CC(C)(C)COC(=O)[C@@H]2CCCN(N2)C1=O)C(C)C
Result: 6.00 to 7.00

---

Recorded measurements of IC50, one per entry
- Target System: KRAS G13D (Homo sapiens, UniProt P01116+P62937, G13D)
- Sequence (P01116 1-169 isoform P01116-2 G13D limits assumed): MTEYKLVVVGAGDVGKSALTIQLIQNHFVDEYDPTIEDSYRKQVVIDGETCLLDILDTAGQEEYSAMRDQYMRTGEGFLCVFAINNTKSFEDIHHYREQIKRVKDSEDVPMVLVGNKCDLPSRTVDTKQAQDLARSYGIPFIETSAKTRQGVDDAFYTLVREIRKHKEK
- Sequence (P62937 whole entry): as the sequence (P62937 whole entry) above
- Experiment Description: Disruption of BRAF RBD interaction with Ras (FRET / MOA assay, with Cyclophilin A)
- Assay type: biochemical
- Condition Description: KRAS G13D; read-out: KRAS G13D FRET data IC50

Recorded IC50, per entry:
| Compound | IC50 |
| --- | --- |
| CCn1c(-c2cccnc2[C@H](C)OC)c2c3cc(ccc31)-c1csc(n1)C[C@H](NC(=O)[C@H](C(C)C)N(C)C(=O)N1CC(N(C)C(=O)C#CC(C)(C)N3CCC3)C1)C(=O)N1CCC[C@H](N1)C(=O)OCC(C)(C)C2 | 0.1 to 1 µM |
| CCn1c(-c2cccnc2[C@H](C)OC)c2c3cc(ccc31)-c1cc(O)cc(c1)C[C@H](NC(=O)[C@H](C(C)C)N(C)C(=O)[C@H]1CCN(C(=O)C(C)(C)N(C)C)C1)C(=O)N1CCC[C@H](N1)C(=O)OCC(C)(C)C2 (atropisomer, axis not shown) | 0.01 to 0.1 µM |
| CCn1c(-c2cccnc2[C@H](C)OC)c2c3cc(ccc31)-c1csc(n1)C[C@H](NC(=O)[C@H](C(C)C)N(C)C(=O)N1CC[C@@H](O)C1)C(=O)N1CCC[C@H](N1)C(=O)OCC(C)(C)C2 (atropisomer, axis not shown) | 0.1 to 1 µM |

Ask: Output measured IC50 for this item: CCn1c(-c2cccnc2[C@H](C)OC)c2c3cc(ccc31)-c1csc(n1)C[C@H](NC(=O)[C@H]1C[C@@H]1C)C(=O)N1CCC[C@H](N1)C(=O)OCC(C)(C)C2
Result: 0.1 to 1 µM
